Origin of the recorded values: patent US8785457B2

Kindly state IC50 for each of the entries shown.
# Assayed system: PI3K delta (PI3 Kd) (Homo sapiens, UniProt O00329)
# Construct: endogenous in cells; host or cells: Jurkat, clone E6-1 (ATCC TIB-152) cell lysate
# Sequence (O00329 whole entry): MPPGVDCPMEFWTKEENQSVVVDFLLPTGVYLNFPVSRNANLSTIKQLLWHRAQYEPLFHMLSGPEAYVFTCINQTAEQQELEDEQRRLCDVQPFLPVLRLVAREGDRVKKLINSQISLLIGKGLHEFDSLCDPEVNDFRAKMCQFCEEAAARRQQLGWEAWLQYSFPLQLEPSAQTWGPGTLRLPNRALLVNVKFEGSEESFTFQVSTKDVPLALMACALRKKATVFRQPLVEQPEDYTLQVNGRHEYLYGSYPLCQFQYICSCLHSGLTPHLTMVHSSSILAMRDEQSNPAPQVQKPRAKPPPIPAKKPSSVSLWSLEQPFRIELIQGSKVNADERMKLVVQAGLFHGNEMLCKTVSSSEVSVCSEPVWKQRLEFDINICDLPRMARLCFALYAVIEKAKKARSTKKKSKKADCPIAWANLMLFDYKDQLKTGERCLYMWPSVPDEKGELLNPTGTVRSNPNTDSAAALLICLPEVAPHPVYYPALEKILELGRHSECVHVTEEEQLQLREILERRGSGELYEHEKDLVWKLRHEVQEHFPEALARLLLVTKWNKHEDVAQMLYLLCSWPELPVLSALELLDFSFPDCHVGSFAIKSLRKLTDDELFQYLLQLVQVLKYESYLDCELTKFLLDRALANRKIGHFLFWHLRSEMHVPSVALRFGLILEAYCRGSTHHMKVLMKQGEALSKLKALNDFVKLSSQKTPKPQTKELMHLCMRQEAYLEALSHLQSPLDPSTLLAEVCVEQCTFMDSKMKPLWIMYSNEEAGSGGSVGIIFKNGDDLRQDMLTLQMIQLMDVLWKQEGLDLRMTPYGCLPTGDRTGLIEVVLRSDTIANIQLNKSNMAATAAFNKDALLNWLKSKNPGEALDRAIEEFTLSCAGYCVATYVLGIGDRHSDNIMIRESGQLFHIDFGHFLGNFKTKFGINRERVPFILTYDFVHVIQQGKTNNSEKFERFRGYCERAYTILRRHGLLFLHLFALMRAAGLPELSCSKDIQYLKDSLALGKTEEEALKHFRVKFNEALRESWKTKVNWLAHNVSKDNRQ
# Sequence (P27986 whole entry partner): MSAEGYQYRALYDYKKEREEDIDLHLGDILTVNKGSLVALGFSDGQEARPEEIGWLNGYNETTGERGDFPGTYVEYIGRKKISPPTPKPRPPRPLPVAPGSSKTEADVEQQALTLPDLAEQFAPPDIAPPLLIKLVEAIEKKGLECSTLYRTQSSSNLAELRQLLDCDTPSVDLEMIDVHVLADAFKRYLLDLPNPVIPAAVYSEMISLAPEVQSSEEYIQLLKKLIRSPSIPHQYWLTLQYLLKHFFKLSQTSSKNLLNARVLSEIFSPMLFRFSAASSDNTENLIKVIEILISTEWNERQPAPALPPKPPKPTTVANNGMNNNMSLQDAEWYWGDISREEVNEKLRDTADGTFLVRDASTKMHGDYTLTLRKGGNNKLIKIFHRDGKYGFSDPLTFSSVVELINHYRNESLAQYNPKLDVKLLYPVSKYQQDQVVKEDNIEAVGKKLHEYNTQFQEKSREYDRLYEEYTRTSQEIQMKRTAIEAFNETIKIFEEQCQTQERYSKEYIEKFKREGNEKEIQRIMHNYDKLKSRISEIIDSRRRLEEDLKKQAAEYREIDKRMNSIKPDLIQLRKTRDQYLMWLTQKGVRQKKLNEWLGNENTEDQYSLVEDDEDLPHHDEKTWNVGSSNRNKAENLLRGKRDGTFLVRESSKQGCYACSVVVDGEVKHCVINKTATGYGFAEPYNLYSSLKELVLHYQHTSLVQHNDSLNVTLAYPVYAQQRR
# Protocol summary: kinobeads assay, PI3K delta
# Format: binding
# Experimental context: Further Kinobeads Data; read-out: PI3Kd

Lab note: need IC50 with PI3K delta (PI3 Kd) (Homo sapiens, UniProt O00329) for entry CCNC(=O)Nc1ccc(-c2nc3c(c(N4CCOC[C@@H]4C)n2)CN(C)C3)c(F)c1 [Example 160] , please look it up.
> 10 µM

Lab note: need IC50 with PI3K delta (PI3 Kd) (Homo sapiens, UniProt O00329) for entry CCNC(=O)Nc1ccc(-c2nc3c(c(N4CCOCC4)n2)CN(C(=O)OC)C3)c(F)c1 [Example 162] , please look it up.
1 to 10 µM

Lab note: need IC50 with PI3K delta (PI3 Kd) (Homo sapiens, UniProt O00329) for entry CC(C)N1Cc2nc(-c3ccc(NC(=O)NCCF)cc3F)nc(N3CCOCC3)c2C1 [Example 185] , please look it up.
1 to 10 µM

Lab note: need IC50 with PI3K delta (PI3 Kd) (Homo sapiens, UniProt O00329) for entry COC(=O)N1Cc2nc(-c3ccc(NC(=O)NC4CC4)cc3F)nc(N3CCOC[C@@H]3C)c2C1 [Example 146] , please look it up.
> 10 µM

Lab note: need IC50 with PI3K delta (PI3 Kd) (Homo sapiens, UniProt O00329) for entry CCNC(=O)Nc1ccc(-c2nc3c(c(N4CCOCC4)n2)CN(C(C)=O)C3)c(F)c1 [Example 161] , please look it up.
> 10 µM

Lab note: need IC50 with PI3K delta (PI3 Kd) (Homo sapiens, UniProt O00329) for entry CCNC(=O)Nc1ccc(-c2nc3c(c(N4CCOC[C@@H]4C)n2)CN(C(C)=O)C3)c(F)c1 [Example 157] , please look it up.
1 to 10 µM

---

# Assayed system: mTOR (Homo sapiens)
# Construct: endogenous in cells; host or cells: Jurkat, clone E6-1 (ATCC TIB-152) cell lysate
# Protocol summary: mTOR kinobeads assay (competitive binding in Jurkat cell lysate, immunodetection)
# Experimental context: kinobeads assay, Table 4; read-out: Inhibition values (IC50) mTor
# Description: The compounds of the present invention as described were tested in the mTOR kinobeads assay as described below. […] After the incubation time the beads with captured proteins were separated from the lysate. Bound proteins were then eluted and the presence of mTOR, PI3K delta (PI3 Kd) and DNA-dependent protein kinase (DNA-PK) was detected and quantified using a specific antibody in a dot blot procedure and the Odyssey infrared detection system. […]
Kindly state IC50 for each of the entries shown.

Please report the recorded IC50 for C[C@H]1COCCN1c1nc(-c2ccc(NC(=O)NC3CC3)cc2)nc2c1CNC2 [Example 3] .
< 100 nM

Please report the recorded IC50 for CC(C)NC(=O)Nc1ccc(-c2nc3c(c(N4CCOC[C@@H]4C)n2)CN(CC2CC2)C3)cc1 [Example 50] .
100 to 1000 nM

Please report the recorded IC50 for C[C@H]1COCCN1c1nc(-c2ccc(NC(=O)Nc3ccc(F)cc3)cc2)nc2c1CN(C)C2 [Example 52] .
100 to 1000 nM

Please report the recorded IC50 for CCNC(=O)Nc1ccc(-c2nc3c(c(N4CCOC[C@@H]4C)n2)CCN(C(=O)C(C)(C)C)C3)cc1 [Example 58] .
< 100 nM

Please report the recorded IC50 for CCNC(=O)Nc1ccc(-c2nc3c(c(N4CCOC[C@@H]4C)n2)CN(CC)C3)cc1 [Example 39] .
< 100 nM

Please report the recorded IC50 for CNC(=O)Nc1ccc(-c2nc3c(c(N4CCOC[C@@H]4C)n2)CNCC3)cc1 [Example 10] .
100 to 1000 nM

Please report the recorded IC50 for C[C@H]1COCCN1c1nc(-c2ccc(NC(=O)NC3CC3)cc2)nc2c1CN(CC1CC1)C2 [Example 30] .
< 100 nM

Please report the recorded IC50 for CCNC(=O)Nc1ccc(-c2nc3c(c(N4CCOC[C@@H]4C)n2)CN(C(C)=O)C3)cc1 [Example 18] .
< 100 nM

Please report the recorded IC50 for CCNC(=O)Nc1ccc(-c2nc3c(c(N4CCOC[C@@H]4C)n2)CNCC3)cc1 [Example 12] .
100 to 1000 nM

Please report the recorded IC50 for CCNC(=O)Nc1ccc(-c2nc3c(c(N4CCOC[C@@H]4C)n2)CCN(CC)C3)cc1 [Example 27] .
< 100 nM

Please report the recorded IC50 for CCNC(=O)Nc1ccc(-c2nc3c(c(N4CCOC[C@@H]4C)n2)CN(C(=O)OC(C)(C)C)C3)cc1 [Example 1] .
100 to 1000 nM

Please report the recorded IC50 for CCNC(=O)Nc1ccc(-c2nc3c(c(N4CCOC[C@@H]4C)n2)CCN(Cc2ccc(F)cc2)C3)cc1 [Example 31] .
100 to 1000 nM

Please report the recorded IC50 for CCNC(=O)Nc1ccc(-c2nc3c(c(N4CCOC[C@@H]4C)n2)CCN(C(=O)C(C)C)C3)cc1 [Example 57] .
< 100 nM

Please report the recorded IC50 for CCN1Cc2nc(-c3ccc(NC(=O)NC4CC4)cc3)nc(N3CCOC[C@@H]3C)c2C1 [Example 36] .
< 100 nM

Please report the recorded IC50 for CCNC(=O)Nc1ccc(-c2nc3c(c(N4CCOC[C@@H]4C)n2)CCN(C(=O)c2ccc(F)cc2)C3)cc1 [Example 24] .
100 to 1000 nM

Please report the recorded IC50 for C[C@H]1COCCN1c1nc(-c2ccc(NC(=O)NC3CC3)cc2)nc2c1CCN(C(=O)C1CC1)C2 [Example 60] .
< 100 nM

Please report the recorded IC50 for CCCNC(=O)Nc1ccc(-c2nc3c(c(N4CCOC[C@@H]4C)n2)CN(CC2CC2)C3)cc1 [Example 49] .
100 to 1000 nM

Please report the recorded IC50 for CCNC(=O)Nc1ccc(-c2nc3c(c(N4CCOC[C@@H]4C)n2)CN(C)C3)cc1 [Example 26] .
< 100 nM

Please report the recorded IC50 for CC(C)CN1CCc2c(nc(-c3ccc(NC(=O)NC4CC4)cc3)nc2N2CCOC[C@@H]2C)C1 [Example 42] .
< 100 nM

Please report the recorded IC50 for C[C@H]1COCCN1c1nc(-c2ccc(NC(=O)NC3CC3)cc2)nc2c1CNCC2 [Example 11] .
100 to 1000 nM

Please report the recorded IC50 for CC(C)N1Cc2nc(-c3ccc(NC(=O)NC4CC4)cc3)nc(N3CCOC[C@@H]3C)c2C1 [Example 46] .
< 100 nM

Please report the recorded IC50 for C[C@H]1COCCN1c1nc(-c2ccc(NC(=O)NC3CC3)cc2)nc2c1CCN(CC1CC1)C2 [Example 40] .
< 100 nM

Please report the recorded IC50 for CCNC(=O)Nc1ccc(-c2nc3c(c(N4CCOC[C@@H]4C)n2)CCN(C(C)=O)C3)cc1 [Example 59] .
< 100 nM

---

# Assayed system: PI3K delta (PI3 Kd) (Homo sapiens, UniProt O00329)
# Construct: endogenous in cells; host or cells: Jurkat, clone E6-1 (ATCC TIB-152) cell lysate
# Protocol summary: kinobeads assay, PI3K delta
# Assay type: binding
# Experimental context: Further Kinobeads Data; read-out: PI3Kd
pIC50: −log10 of the molar value.
Result type: pIC50

Please report the recorded pIC50 for CCNC(=O)Nc1ccc(-c2nc3c(c(N4CCOC[C@@H]4C)n2)CNC3)c(F)c1.Cl [Example 158, hydrochloride] .
< 5.00

Please report the recorded pIC50 for COC(=O)N1Cc2nc(-c3ccc(NC(=O)NCCO)cc3F)nc(N3CCOCC3)c2C1 [Example 175] .
< 5.00

Please report the recorded pIC50 for CCNC(=O)Nc1ccc(-c2nc3c(c(N4CCOC[C@@H]4C)n2)CCN(C(=O)N(C)C)C3)c(F)c1 [Example 176] .
5.00 to 6.00

Please report the recorded pIC50 for C[C@H]1COCCN1c1nc(-c2ccc(NC(=O)NC3CC3)cc2F)nc2c1CN(C(=O)N(C)C)C2 [Example 178] .
< 5.00

Please report the recorded pIC50 for C[C@@H]1COCCN1c1nc(-c2ccc(NC(=O)NC3CC3)cc2F)nc2c1CN(C(=O)OC(C)(C)C)C2 [Example 182] .
5.00 to 6.00

Please report the recorded pIC50 for CCNC(=O)Nc1cc(F)c(-c2nc3c(c(N4CCOC[C@@H]4C)n2)CN(C(=O)OCC)C3)c(F)c1 [Example 142] .
< 5.00

Please report the recorded pIC50 for CCNC(=O)Nc1ccc(-c2nc3c(c(N4CCOC[C@@H]4C)n2)CN(C)C3)c(F)c1F [Example 140] .
< 5.00

Please report the recorded pIC50 for CCNC(=O)Nc1ccc(-c2nc3c(c(N4CCOC[C@@H]4C)n2)CN(C(=O)OC)C3)c(F)c1 [Example 152] .
5.00 to 6.00

Please report the recorded pIC50 for CCNC(=O)Nc1cc(F)c(-c2nc3c(c(N4CCOC[C@@H]4C)n2)CN(C(=O)OCC)C3)cc1F [Example 141] .
< 5.00

Please report the recorded pIC50 for CC(C)N1Cc2nc(-c3ccc(NC(=O)NCCF)cc3F)nc(N3CCOC[C@@H]3C)c2C1 [Example 186] .
5.00 to 6.00

Please report the recorded pIC50 for CCOC(=O)N1Cc2nc(-c3ccc(NC(=O)NCCF)cc3F)nc(N3CCOC[C@@H]3C)c2C1 [Example 168] .
5.00 to 6.00

Please report the recorded pIC50 for C[C@H]1COCCN1c1nc(-c2ccc(NC(=O)NC3CC3)cc2F)nc2c1CCN(C(=O)N(C)C)C2 [Example 165] .
< 5.00
